- TARGET UNDER TEST: T1, PKC-ε (purified isoform) (Homo sapiens (Human), UniProt Q02156 1-737)
- T1 construct: also called PKC-epsilon; PKCepsilon
- T1 sequence: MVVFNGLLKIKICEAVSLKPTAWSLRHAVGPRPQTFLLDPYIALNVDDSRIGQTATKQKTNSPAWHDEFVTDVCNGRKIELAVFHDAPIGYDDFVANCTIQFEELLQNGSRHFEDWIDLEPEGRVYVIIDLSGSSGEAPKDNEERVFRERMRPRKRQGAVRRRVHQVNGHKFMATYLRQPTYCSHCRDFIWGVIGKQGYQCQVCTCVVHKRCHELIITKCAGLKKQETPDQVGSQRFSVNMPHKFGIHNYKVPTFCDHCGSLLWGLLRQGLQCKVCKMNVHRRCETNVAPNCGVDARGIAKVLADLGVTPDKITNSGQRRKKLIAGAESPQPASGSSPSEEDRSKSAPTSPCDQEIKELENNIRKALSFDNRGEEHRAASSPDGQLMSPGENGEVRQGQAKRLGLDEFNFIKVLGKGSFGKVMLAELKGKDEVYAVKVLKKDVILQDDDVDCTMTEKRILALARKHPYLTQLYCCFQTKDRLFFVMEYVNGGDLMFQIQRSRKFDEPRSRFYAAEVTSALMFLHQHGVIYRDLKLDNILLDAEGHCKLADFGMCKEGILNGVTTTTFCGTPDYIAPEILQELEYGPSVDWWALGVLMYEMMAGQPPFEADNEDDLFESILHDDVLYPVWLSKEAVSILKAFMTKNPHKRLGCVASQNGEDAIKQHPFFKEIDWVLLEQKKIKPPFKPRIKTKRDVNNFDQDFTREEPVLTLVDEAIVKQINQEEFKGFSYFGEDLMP
- ASSAY METHOD TEXT: competitive ELISA on purified PKC-ε vs anti-PKC-ε Ab; PRE 50 µM
Please go through the items and note down their binding capacity (%).
Enter the number, and then the unit.

1) Ac-ISIGILQNADK-NH2 (Synthetic peptide (retro form of PRE 4); also called peptide PRE 7) [PRE 7] :: 8.04%
2) Ac-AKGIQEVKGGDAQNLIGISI-NH2 (Synthetic peptide; also called peptide PRE 3) [PRE 3] :: 34%
3) Ac-RDAQNLIGISI-NH2 (Synthetic peptide; also called peptide PRE 11) [PRE 11] :: 2.25%
4) Ac-KDAQNLI-NH2 (Synthetic peptide; also called peptide PRE 12; Ac-KDAQNLI-NH2) [PRE 12] :: 10.4%

Could you now look at the following binder, please?
I have this binder here, Ac-RDAQNLI-NH2 (Synthetic peptide; also called peptide PRE 13; Ac-RDAQNLI-NH2) [PRE 13] , and I need its recorded binding capacity (%).
0%
